Cited source for all entries: patent US20160321394A1

# assayTarget: T1, full-length recombinant human GRP78 (glucose-regulated protein 78), N-His tagged (human, UniProt P11021 19-654, limits assumed)
# T1 construct: Immobilised on a Biacore NTA chip by Ni chelation plus amine coupling; also called His-tagged GRP78; human glucose-regulated protein 78; not shown: N-terminal His tag
# T1 sequence (P11021 19-654 limits assumed): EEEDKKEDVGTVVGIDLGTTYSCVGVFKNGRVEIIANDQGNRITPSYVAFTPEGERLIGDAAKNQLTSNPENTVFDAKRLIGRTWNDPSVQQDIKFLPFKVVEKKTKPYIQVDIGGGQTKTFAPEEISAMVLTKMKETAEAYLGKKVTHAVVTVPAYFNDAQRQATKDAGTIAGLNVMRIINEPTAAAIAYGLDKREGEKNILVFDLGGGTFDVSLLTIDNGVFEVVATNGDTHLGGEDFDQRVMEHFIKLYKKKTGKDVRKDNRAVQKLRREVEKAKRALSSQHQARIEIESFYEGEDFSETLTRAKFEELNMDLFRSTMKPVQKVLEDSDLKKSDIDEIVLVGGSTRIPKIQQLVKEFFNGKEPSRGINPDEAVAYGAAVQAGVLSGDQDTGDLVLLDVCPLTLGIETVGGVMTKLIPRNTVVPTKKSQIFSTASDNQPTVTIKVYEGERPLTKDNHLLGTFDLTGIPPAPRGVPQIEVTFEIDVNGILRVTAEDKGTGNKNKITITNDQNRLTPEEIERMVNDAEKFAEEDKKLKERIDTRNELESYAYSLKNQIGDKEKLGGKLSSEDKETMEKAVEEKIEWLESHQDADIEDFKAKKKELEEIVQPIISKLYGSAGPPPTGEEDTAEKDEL
# runDescription: Biacore X SPR, 50 µM peptide over immobilised N-His GRP78; RU/MW normalised to L-peptide
Where no end group is shown, it is not given here.
binders and their reported Binding index
Reply with just the number.

Examples with their reported Binding index follow.
# binder, Binding index
measured = [
    ("RLLDTNRPNLPY [PA-4]", 0.31),
    ("RLLDTNRPFLWY [PB-1]", 1.6),
]

Input: Requested field: Binding index. Item: RLLDTNRPHLPY [PA-6]
Output: 0.47

Input: Okay, and RLLDTNRPLLPY-NH2 [PB-3] ?
Output: 1.15

Input: Okay, and RLLDTNRPQLPY [PA-5] ?
Output: 0.3

Input: Okay, and RLLDTNRPLLGY [P-11] ?
Output: 0.77

Input: Okay, and RLLDTNRPLLLY [P-14] ?
Output: 0.21

Input: Okay, and RLLDTNRPLLPY (synthetic 12-mer, lead peptide; also called positive control) [L-peptide] ?
Output: 1

Input: Okay, and RLLDTNRPWLPY [PA-1] ?
Output: 0.35
